The reported numbers originate from patent US12577262B2.

- System: A549 human lung cancer cell line
- experiment description: Cell proliferation MTT assay, Example 4 (Table 8)
- Type: cell-based
- protocol conditions: Homo sapiens, 72 h treatment, max DMSO 0.1%
Structures can show the parent of a compound that is named as a salt.
property measured: IC50 (nM)
Field: numeric (nM). Do not append units.

Qu. Fill blank: measured IC50 of the compound COc1cccc2c1C(=O)c1c(O)c3c(c(O)c1C2=O)C[C@@](O)(C(=O)CO)C[C@@H]3O[C@H]1C[C@H](N)[C@H](O)[C@H](C)O1 [Doxorubicin•HCl, Doxorubicin] is ____.
Ans. 131
